Field pIC50: reported value for Histone-lysine N-methyltransferase EHMT2 (Homo sapiens, UniProt Q96KQ7); entries drawn from several documents.
Expect pIC50 as a plain number equal to -log10 of the molar concentration.

COMPOUND	pIC50
COc1cc2nc3c(c(NC4CCN(C5CCOC5)CC4)c2cc1OC)CCC3 (stereo not drawn)	6.21
CCCCC[C@H]1O[C@@H](n2cnc3c(N)ncnc32)[C@H](O)[C@@H]1O	3.99
COc1cc2c(NCc3ccc([C@H]4CC[C@@H](C(=O)NO)CC4)cc3)cc(-c3ccc(C)o3)nc2cc1OCCCN1CCCC1	5.72
CN(C)CCNc1cc(N2CCCC2)c2noc3c2c1C(=O)c1ccccc1-3	5.22
COc1cc2c(cc1OCCCN1CC[C@@H](F)C1)N=C(N)C21CCC1	8.43
CNc1cc(C)nc(Nc2ccc(OC)c(C3CCN(C)CC3)c2)n1	6.23

Read the next record carefully.
Incoming: I would be grateful if you could share the reported pIC50 for O=C1c2ccccc2-c2onc3c(N4CCN(c5ccccc5)CC4)cc(NCCN4CCCCC4)c1c23 .
Outgoing: 5.57

###

Molecular target: Histone-lysine N-methyltransferase EHMT2 (Homo sapiens)
Sequence (Q96KQ7 whole entry): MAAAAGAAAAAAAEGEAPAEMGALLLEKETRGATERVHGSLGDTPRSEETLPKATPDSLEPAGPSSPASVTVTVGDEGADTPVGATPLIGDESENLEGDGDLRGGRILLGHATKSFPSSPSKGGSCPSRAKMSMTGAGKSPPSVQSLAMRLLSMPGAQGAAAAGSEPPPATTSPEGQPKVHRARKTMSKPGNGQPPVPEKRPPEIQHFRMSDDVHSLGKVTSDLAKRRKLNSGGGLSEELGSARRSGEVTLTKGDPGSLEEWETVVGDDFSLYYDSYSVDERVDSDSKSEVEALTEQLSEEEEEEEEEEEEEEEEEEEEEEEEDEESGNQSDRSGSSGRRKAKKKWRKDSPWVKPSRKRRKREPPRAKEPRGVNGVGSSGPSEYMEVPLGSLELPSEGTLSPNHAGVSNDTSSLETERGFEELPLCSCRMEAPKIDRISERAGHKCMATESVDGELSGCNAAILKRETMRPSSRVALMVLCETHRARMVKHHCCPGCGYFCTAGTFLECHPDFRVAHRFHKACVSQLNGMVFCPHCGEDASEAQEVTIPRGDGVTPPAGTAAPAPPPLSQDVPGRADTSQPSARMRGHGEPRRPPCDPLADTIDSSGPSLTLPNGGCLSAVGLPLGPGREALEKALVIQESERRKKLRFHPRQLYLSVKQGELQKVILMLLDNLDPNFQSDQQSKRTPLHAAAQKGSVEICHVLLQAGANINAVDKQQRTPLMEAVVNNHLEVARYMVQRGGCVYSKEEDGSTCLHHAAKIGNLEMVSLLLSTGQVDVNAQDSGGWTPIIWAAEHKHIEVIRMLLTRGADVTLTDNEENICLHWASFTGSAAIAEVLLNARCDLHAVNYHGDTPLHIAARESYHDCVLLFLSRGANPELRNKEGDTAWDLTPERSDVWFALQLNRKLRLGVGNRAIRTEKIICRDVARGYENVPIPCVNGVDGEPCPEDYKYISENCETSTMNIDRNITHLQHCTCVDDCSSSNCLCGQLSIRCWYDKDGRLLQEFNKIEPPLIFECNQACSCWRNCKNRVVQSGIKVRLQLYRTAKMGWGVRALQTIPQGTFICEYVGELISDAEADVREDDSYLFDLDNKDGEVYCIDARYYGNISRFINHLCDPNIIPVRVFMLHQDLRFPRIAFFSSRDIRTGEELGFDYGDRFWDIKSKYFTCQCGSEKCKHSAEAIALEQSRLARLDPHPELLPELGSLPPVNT
Compiled notes: published IC50 values involving Histone-lysine N-methyltransferase EHMT2 (Homo sapiens).

Some solved entries appear below for comparison.
CCCc1cc(C)[nH]c(=O)c1CNC(=O)c1cc(-c2ccc(N3CCN(C)CC3)nc2)cc2c1cnn2C(C)C > 100 µM
COc1cc2nc(N3CCCC3)nc(NCCCCCN3CCCC3)c2cc1OC > 100 µM
Cc1cc(C)c(CNC(=O)c2cc(-c3ccc(N4CCN(C)CC4)nc3)cc3c2cnn3C(C)C)c(=O)[nH]1 > 100 µM
CCCc1cc(C)[nH]c(=O)c1CNC(=O)c1cc(-c2ccnc(N3CCN(C)CC3)c2)cc2c1cnn2C(C)C > 100 µM
COc1cc2nc3c(c(NC4CCN(C(C)C)CC4)c2cc1OC)CCCC3 ≥ 10 µM

Incoming: Report IC50 for COc1cc2nc(-c3ccc(C)o3)cc(N[C@H]3CC[C@H](C(=O)NO)CC3)c2cc1OC tested on Histone-lysine N-methyltransferase EHMT2 (Homo sapiens).
Outgoing: > 10 µM
